Measured values drawn from patent US6013244A for this set.

systemTested: Human Glucocorticoid Receptor (Homo sapiens, UniProt P04150)
Construct: endogenous in cells; host or cells: HeLa cells stably transfected with the MMTV-LTR/sPAP reporter
Sequence (P04150 whole entry): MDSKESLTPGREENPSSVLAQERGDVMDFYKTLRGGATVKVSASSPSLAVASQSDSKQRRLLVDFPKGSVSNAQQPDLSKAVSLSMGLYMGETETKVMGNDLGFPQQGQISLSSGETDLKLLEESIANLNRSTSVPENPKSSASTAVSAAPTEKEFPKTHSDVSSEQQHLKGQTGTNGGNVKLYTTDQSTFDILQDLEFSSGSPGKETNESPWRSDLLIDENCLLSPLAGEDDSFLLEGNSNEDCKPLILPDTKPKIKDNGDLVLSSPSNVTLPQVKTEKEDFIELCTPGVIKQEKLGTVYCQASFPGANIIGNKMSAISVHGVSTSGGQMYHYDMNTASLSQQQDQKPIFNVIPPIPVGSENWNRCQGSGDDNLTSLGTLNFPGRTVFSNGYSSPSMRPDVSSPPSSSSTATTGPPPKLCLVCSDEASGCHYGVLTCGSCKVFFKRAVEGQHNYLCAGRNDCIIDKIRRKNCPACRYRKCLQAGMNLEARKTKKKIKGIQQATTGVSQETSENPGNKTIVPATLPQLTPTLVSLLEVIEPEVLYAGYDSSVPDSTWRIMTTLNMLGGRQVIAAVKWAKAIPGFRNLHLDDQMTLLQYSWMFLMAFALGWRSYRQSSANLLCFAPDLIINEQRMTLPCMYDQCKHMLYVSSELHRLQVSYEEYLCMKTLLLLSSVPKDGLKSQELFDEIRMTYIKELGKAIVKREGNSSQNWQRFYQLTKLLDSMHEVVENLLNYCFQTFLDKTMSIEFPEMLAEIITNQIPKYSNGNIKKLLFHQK
protocolDetails: functional in vitro glucocorticoid assay, MMTV-sPAP reporter gene in transfected Hela cells
Type: cell-based
pEC50: −log10 of the molar value.
What pEC50 was measured for each of the following?

Input: Quick check: pEC50 of CCC[C@@H]1O[C@@H]2C[C@H]3[C@@H]4C[C@H](F)C5=CC(=O)CC[C@]5(C)[C@@]4(F)[C@@H](O)C[C@]3(C)[C@]2(C(=O)CSC2CCOC2=O)O1 (some centres unmarked) [Example 8] ?
Output: > 6.22

Input: Quick check: pEC50 of CCC(=O)O[C@]1(C(=O)CSC2CCOC2=O)[C@H](C)C[C@H]2[C@@H]3C[C@H](F)C4=CC(=O)C=C[C@]4(C)[C@@]3(F)[C@@H](O)C[C@@]21C (some centres unmarked) [Example 1] ?
Output: > 6.22

Input: Quick check: pEC50 of CC1(C)O[C@@H]2C[C@H]3[C@@H]4C[C@H](F)C5=CC(=O)C=C[C@]5(C)[C@@]4(F)[C@@H](O)C[C@]3(C)[C@]2(C(=O)CSC2COC(=O)C2)O1 (some centres unmarked) [Example 10] ?
Output: > 6.22

Input: Quick check: pEC50 of CCC(=O)O[C@]1(C(=O)CSC2CCOC2=O)[C@H](C)C[C@H]2[C@@H]3C[C@H](F)C4=CC(=O)CC[C@]4(C)[C@@]3(F)[C@@H](O)C[C@@]21C (some centres unmarked) [Example 2] ?
Output: > 6.22

Input: Quick check: pEC50 of CCC[C@@H]1O[C@@H]2C[C@H]3[C@@H]4C[C@H](F)C5=CC(=O)C=C[C@]5(C)[C@@]4(F)[C@@H](O)C[C@]3(C)[C@]2(C(=O)CSC2CCOC2=O)O1 (some centres unmarked) [Example 7] ?
Output: > 6.22
